target: Mas-related G-protein coupled receptor member X1 (Mus musculus); test: Agonist activity at mouse MrgC11 transfected in HEK293 cells by FLIPR assay
Sequence (Q8CIP3 whole entry): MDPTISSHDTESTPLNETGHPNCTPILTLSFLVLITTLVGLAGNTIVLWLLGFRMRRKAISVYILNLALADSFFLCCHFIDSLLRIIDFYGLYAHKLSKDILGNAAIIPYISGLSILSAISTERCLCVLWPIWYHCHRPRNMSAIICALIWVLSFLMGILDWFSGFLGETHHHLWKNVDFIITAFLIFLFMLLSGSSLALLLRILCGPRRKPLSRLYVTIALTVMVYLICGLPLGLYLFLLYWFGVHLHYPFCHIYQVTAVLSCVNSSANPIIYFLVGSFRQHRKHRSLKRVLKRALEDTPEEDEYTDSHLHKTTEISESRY
pEC50: −log10 of the molar value.
QUANTITY: pEC50

1. N=C(N)Nc1cccc(C(N)C(=O)N[C@@H](Cc2ccccc2)C(N)=O)c1 (stereo partly specified) | 4.50
